Recorded IC50 for the following compounds
biological target: P2X7 receptor (Homo sapiens, UniProt Q99572); assay: IL-1β release assay in differentiated THP-1 cells stimulated with BzATP (Example 9); settings: THP-1 cells, BzATP 250 uM, IL-1β by ELISA
Sequence (Q99572 whole entry): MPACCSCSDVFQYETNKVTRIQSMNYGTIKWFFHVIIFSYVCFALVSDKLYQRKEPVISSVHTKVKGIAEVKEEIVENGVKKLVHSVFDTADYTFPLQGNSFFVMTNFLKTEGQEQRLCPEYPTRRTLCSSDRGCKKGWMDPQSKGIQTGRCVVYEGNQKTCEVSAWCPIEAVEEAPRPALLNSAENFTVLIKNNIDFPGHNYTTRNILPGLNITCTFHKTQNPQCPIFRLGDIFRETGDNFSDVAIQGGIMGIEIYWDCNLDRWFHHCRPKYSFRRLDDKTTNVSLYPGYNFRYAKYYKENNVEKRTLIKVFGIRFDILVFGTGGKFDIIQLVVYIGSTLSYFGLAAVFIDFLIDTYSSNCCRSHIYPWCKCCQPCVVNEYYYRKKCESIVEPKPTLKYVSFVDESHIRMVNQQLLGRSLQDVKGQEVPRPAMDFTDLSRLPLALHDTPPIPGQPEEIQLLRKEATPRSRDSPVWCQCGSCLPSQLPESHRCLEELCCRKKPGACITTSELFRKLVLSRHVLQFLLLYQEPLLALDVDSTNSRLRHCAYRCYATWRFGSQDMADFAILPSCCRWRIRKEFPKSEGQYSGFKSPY
// return numeric value only (unit: nM, not printed)

Cc1ccc2c(=O)n([C@H](C)CO)ccc2c1NC(=O)Cc1cccc(C(F)(F)F)c1F = 9.44
CC(C(=O)Nc1cccc2c(=O)n(C[C@H]3CCCN3)ccc12)c1ccc(Cl)cc1 (some centres unmarked) = 356
Cc1ccc2c(=O)n([C@H](C)CO)ccc2c1NC(=O)Cc1ccc(C(F)(F)F)c(F)c1 = 5.38
CC(C)[C@H](CO)n1ccc2c(NC(=O)[C@@H](C)c3ccc(Cl)cc3)cccc2c1=O = 14.5
Cc1ccc2c(=O)n([C@H](C)CO)ccc2c1NC(=O)Cc1ccc(Cl)c(F)c1 = 5.38

Recorded IC50 for C[C@H](C(N)=O)n1ccc2c(NC(=O)C(C)(C)c3ccc(Cl)cc3)cccc2c1=O , please?
443

Recorded IC50 for Cc1ccc2c(=O)n(CCO)ccc2c1NC(=O)Cc1cccc(C(F)(F)F)c1F , please?
10.7

Recorded IC50 for Cc1ccc2c(=O)n([C@H](C)CO)ccc2c1NC(=O)Cc1ccc(F)c(C(F)(F)F)c1 , please?
5.54

Recorded IC50 for CC(=O)NCCn1ccc2c(NC(=O)Cc3ccc(Cl)c(C(F)(F)F)c3)cccc2c1=O , please?
0.39

Recorded IC50 for Cc1ccc2c(=O)n([C@H](C)CO)ccc2c1NC(=O)Cc1ccc(C(F)(F)F)cc1 , please?
65.1

Recorded IC50 for C[C@H](C(N)=O)n1ccc2c(NC(=O)Cc3ccc(OC(F)(F)F)cc3)cccc2c1=O , please?
150

Recorded IC50 for CC(=O)NCCn1ccc2c(NC(=O)Cc3ccc(F)c(F)c3)cccc2c1=O , please?
0.74

* * *

assay: Determination of aqueous (kinetic) solubility; format: physicochemical; conditions: aqueous buffer, kinetic from dmso stock, buffer pH 7.4
Recorded solubility for the following molecules

O=C(Cc1ccc(C(F)(F)F)cc1)Nc1cccc2c(=O)n(CCO)ccc12 = < 25 µM

Recorded solubility for O=C(Cc1ccc(C(F)(F)F)c(F)c1)Nc1cccc2c(=O)n(CCO)ccc12 , please?
< 25 µM

Recorded solubility for C[C@H](C(N)=O)n1ccc2c(NC(=O)[C@H](C)c3ccc(Cl)c(Cl)c3)cccc2c1=O , please?
26 to 50 µM

Recorded solubility for C[C@@H](C(=O)Nc1cccc2c(=O)n([C@@H](C)C(N)=O)ccc12)c1ccc(Cl)cc1 , please?
> 75 µM

Recorded solubility for C[C@H](C(N)=O)n1ccc2c(NC(=O)Cc3ccc(F)c(Cl)c3)cccc2c1=O , please?
26 to 50 µM

Recorded solubility for Cc1ccc2c(=O)n([C@H](C)CO)ccc2c1NC(=O)Cc1cccc(C(F)(F)F)c1F , please?
> 75 µM

Recorded solubility for Cc1ccc2c(=O)n([C@H](C)CO)ccc2c1NC(=O)Cc1ccc(Cl)c(F)c1 , please?
> 75 µM

Recorded solubility for CC(C)[C@H](C(N)=O)n1ccc2c(NC(=O)[C@H](C)c3ccc(Cl)cc3)cccc2c1=O , please?
> 75 µM

* * *

Recorded inhibition at 0.3 µM for the following compounds
molecular target: P2X7 receptor (Homo sapiens, UniProt Q99572); construct: host or cells: THP-1 cells differentiated with LPS and IFN-γ; assay: IL-1β release assay in differentiated THP-1 cells stimulated with BzATP (Example 9); format: cell-based; conditions: 0.3 μM compound; differentiated THP-1 cells, BzATP 250 uM; "+" symbols; read-out: IL-1β % Inhib. @ 0.3 or 0.1 uM

Worked cases, inhibition at 0.3 µM given:
CC(C)(CO)n1ccc2c(NC(=O)Cc3ccc(Cl)cc3F)cccc2c1=O = > 76%
Cc1ccc2c(=O)n([C@H](C)CO)ccc2c1NC(=O)Cc1ccc(C(F)(F)F)cc1 = > 76%
C[C@H](C(N)=O)n1ccc2c(NC(=O)Cc3ccc(OC(F)(F)F)cc3)cccc2c1=O = 51 to 75%
CNC(=O)[C@@H](CO)n1ccc2c(NC(=O)C(C)c3ccc(Cl)c(Cl)c3)cccc2c1=O (stereo partly shown) = > 76%
C[C@H](CO)n1ccc2c(NC(=O)Cc3ccc(C(F)(F)F)c(F)c3)c(Cl)ccc2c1=O = > 76%
C[C@H](C(=O)Nc1c(Cl)ccc2c(=O)n([C@H](C)C(N)=O)ccc12)c1ccc(Cl)cc1 = > 76%
C[C@H](CO)n1ccc2c(NC(=O)Cc3ccc(C(F)(F)F)c(F)c3)c(C3CC3)ccc2c1=O = > 76%
C[C@H](CO)n1ccc2c(NC(=O)Cc3ccc(C(F)(F)F)cc3F)cccc2c1=O = > 76%

Recorded inhibition at 0.3 µM for COc1ccc2c(=O)n([C@H](C)CO)ccc2c1NC(=O)Cc1ccc(C(F)(F)F)c(F)c1 , please?
0 to 25%

Recorded inhibition at 0.3 µM for C[C@@H](C(N)=O)n1ccc2c(NC(=O)Cc3ccc(F)c(Cl)c3)cccc2c1=O , please?
> 76%

Recorded inhibition at 0.3 µM for CNC(=O)[C@@H](C(C)C)n1ccc2c(NC(=O)[C@H](C)c3ccc(Cl)cc3)cccc2c1=O , please?
> 76%

Recorded inhibition at 0.3 µM for CC(C(=O)Nc1cccc2c(=O)n([C@@H](C)C(N)=O)ccc12)c1ccc(Cl)c(C(F)(F)F)c1 (stereo partly shown) , please?
> 76%

Recorded inhibition at 0.3 µM for C[C@H](C(N)=O)n1ccc2c(NC(=O)Cc3ccc(Cl)cc3C(F)(F)F)cccc2c1=O , please?
> 76%

Recorded inhibition at 0.3 µM for O=C(Cc1ccc(C(F)(F)F)cc1C(F)(F)F)Nc1cccc2c(=O)n(C(CO)CO)ccc12 , please?
26 to 50%

Recorded inhibition at 0.3 µM for NC(=O)[C@H](CO)n1ccc2c(NC(=O)Cc3ccc(Cl)c(C(F)(F)F)c3)cccc2c1=O , please?
> 76%

Recorded inhibition at 0.3 µM for CC(C(=O)Nc1cccc2c(=O)n([C@H](C)C(N)=O)ccc12)c1ccc(F)cc1 (stereo partly shown) , please?
> 76%
